Target System: HDAC3 (Homo sapiens (Human), UniProt O15379)
Sequence (O15379 whole entry): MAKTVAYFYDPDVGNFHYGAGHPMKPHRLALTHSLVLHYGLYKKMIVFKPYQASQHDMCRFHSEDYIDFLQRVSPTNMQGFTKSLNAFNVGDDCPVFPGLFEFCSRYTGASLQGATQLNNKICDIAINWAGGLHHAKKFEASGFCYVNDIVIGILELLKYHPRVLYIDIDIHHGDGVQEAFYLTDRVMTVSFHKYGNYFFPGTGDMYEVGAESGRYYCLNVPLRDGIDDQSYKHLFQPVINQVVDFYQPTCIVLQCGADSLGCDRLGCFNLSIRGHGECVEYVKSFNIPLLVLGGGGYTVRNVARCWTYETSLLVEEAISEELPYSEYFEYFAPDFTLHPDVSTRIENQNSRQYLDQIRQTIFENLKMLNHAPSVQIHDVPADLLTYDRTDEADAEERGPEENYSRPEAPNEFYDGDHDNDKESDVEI
Sequence (Q9Y618 395-489 partner): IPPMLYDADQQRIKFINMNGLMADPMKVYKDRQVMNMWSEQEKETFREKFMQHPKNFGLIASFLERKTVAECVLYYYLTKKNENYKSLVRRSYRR
Assay Notes: Caliper HDAC enzymatic endpoint assay, HDAC3
Format: biochemical
Assay Setup: read-out: HDAC3 IC50 3 h Prein; Table 2, 3 h preincubation
Reported Metric: IC50 (nM)

Example compounds with recorded IC50:
{"columns": ["Compound Structure", "Experimental Value"],
 "data": [
  ["Nc1cc(F)ccc1NC(=O)c1ccc(F)cc1", 436],
  ["CC(=O)Nc1ccc(C(=O)Nc2cccc(F)c2N)cc1", 376]
]}

a. CC(=O)Nc1ccc(C(=O)Nc2cc(Br)ccc2N)cc1
b. CC(=O)Nc1ccc(C(=O)Nc2ccc(Cl)cc2N)cc1
Ask: Rank a against b by their IC50 values and give the higher one. Lab note: record the label of whichever item you select.
Reply: b
(b: 2050 nM, a: 299 nM)

----------
Target System: HDAC7 (Homo sapiens (Human))
Sequence (Q8WUI4 whole entry): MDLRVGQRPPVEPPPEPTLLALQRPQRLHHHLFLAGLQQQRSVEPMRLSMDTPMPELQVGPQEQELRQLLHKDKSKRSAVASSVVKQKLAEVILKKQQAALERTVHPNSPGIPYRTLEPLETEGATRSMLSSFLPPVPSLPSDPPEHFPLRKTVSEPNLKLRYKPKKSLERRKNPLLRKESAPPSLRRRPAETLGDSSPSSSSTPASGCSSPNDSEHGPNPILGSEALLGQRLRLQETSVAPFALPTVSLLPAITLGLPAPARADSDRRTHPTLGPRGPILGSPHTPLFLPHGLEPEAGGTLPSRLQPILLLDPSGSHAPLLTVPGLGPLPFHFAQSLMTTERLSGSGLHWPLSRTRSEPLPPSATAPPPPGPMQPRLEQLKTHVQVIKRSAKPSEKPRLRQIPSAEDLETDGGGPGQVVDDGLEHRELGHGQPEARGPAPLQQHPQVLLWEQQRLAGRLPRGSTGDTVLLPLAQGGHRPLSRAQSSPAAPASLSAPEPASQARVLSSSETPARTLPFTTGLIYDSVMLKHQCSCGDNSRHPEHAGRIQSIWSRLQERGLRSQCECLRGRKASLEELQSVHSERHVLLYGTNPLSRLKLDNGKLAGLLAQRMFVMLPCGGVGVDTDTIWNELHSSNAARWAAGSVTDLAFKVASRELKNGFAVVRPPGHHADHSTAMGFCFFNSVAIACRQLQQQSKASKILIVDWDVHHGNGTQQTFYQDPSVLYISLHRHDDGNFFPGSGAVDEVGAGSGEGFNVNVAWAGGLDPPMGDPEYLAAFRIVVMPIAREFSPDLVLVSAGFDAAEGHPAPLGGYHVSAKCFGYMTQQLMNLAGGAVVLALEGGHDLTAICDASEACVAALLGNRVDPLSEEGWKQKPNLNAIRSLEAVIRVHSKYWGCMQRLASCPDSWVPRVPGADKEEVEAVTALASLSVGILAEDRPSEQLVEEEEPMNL
Reported Metric: IC50

{"columns": ["Compound", "Experimental Value"],
 "data": [
  ["CC(=O)Nc1ccc(C(=O)Nc2ccc(F)cc2N)cc1", "> 33 µM"]
]}

Let's switch to this compound now.
Ask: Provide IC50, tested on HDAC7 (Homo sapiens (Human)), for CC(=O)Nc1ccc(C(=O)Nc2cc(-c3ccncc3)ccc2N)cc1 [BRD2492, reference compound] .
Reply: > 33 µM

----------
Target System: HDAC3 (Homo sapiens (Human))
Assay Notes: Caliper HDAC enzymatic endpoint assay, HDAC3
Assay type: biochemical
Assay Setup: read-out: HDAC3 IC50 3 h Preinc; Table 2A, 3 h preincubation
pIC50: −log10 of the molar value.
Reported Metric: pIC50

{"columns": ["Compound", "Target System", "pIC50"],
 "data": [
  ["Nc1ccccc1NC(=O)c1ccc(CNC(=O)/C=C/c2cccnc2)cc1 [Cmpd 3A, reference compound]", "HDAC3 (Homo sapiens (Human))", 7.66]
]}

P. Nc1cc(F)ccc1NC(=O)c1ccc(CNC(=O)OCc2cccnc2)cc1 [Compound 1A, reference compound]
Q. Nc1cc(F)ccc1NC(=O)c1ccc(CNc2nccc(-c3cccnc3)n2)cc1 [Cmpd 2A, reference compound]
R. CC(=O)Nc1ccc(C(=O)Nc2ccc(F)cc2N)cc1
Ask: Reorder: pIC50, max to min. Order the labels as requested and give them as your answer.
Reply: Q, P, R
(Q: 7.77, P: 7.44, R: 7.17)

----------
Target System: HDAC1 (Homo sapiens (Human), UniProt Q13547)
Sequence (Q13547 whole entry): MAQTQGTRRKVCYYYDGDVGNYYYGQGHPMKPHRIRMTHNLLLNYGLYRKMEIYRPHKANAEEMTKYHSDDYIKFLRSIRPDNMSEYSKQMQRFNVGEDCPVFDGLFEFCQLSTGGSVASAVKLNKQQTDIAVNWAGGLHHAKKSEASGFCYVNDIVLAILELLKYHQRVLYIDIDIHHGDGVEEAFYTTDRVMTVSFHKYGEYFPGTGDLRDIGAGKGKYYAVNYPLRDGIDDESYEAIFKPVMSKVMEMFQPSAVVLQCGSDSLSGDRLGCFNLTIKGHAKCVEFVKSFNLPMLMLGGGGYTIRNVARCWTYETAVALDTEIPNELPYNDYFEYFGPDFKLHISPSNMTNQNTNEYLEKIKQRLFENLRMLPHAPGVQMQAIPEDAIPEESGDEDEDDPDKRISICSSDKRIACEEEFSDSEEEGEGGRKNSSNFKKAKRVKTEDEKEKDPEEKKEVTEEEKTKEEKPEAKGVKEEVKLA
Assay Notes: Caliper HDAC enzymatic endpoint assay, HDAC1
Assay type: biochemical
Assay Setup: read-out: HDAC1 IC50 after 3 hr preincubation; Table 2B
Reported Metric: IC50 (nM)
Answer format: numeric, nM implied, no suffix.

Ask: # return recorded IC50 for entry CC(=O)Nc1ccc(C(=O)Nc2cc(-c3ccncc3)ccc2N)cc1 [BRD2492, reference compound]
Reply: 2

----------
Target System: HDAC8 (Homo sapiens (Human))
Sequence (Q9BY41 whole entry): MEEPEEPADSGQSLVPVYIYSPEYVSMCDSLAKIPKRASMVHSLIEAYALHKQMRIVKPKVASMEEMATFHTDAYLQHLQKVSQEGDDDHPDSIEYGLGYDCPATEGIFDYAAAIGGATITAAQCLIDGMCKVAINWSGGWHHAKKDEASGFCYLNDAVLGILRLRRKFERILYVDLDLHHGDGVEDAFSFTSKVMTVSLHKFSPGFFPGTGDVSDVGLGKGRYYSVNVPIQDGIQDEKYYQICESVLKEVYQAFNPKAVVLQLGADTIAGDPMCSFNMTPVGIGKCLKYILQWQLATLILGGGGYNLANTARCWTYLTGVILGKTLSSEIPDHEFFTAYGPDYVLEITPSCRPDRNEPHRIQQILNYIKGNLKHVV
pIC50: −log10 of the molar value.
Reported Metric: pIC50

{"columns": ["Compound", "Target System", "pIC50"],
 "data": [
  ["CC(=O)Nc1ccc(C(=O)Nc2ccc(C)cc2N)cc1", "HDAC8 (Homo sapiens (Human))", "< 4.48"]
]}

Let's switch to this compound now.
Ask: # return recorded pIC50 for entry CC(=O)Nc1ccc(C(=O)Nc2cc(-c3ccncc3)ccc2N)cc1 [BRD2492, reference compound]
Reply: < 4.48

----------
Target System: HDAC9 (Homo sapiens (Human))
Sequence (Q9UKV0 whole entry): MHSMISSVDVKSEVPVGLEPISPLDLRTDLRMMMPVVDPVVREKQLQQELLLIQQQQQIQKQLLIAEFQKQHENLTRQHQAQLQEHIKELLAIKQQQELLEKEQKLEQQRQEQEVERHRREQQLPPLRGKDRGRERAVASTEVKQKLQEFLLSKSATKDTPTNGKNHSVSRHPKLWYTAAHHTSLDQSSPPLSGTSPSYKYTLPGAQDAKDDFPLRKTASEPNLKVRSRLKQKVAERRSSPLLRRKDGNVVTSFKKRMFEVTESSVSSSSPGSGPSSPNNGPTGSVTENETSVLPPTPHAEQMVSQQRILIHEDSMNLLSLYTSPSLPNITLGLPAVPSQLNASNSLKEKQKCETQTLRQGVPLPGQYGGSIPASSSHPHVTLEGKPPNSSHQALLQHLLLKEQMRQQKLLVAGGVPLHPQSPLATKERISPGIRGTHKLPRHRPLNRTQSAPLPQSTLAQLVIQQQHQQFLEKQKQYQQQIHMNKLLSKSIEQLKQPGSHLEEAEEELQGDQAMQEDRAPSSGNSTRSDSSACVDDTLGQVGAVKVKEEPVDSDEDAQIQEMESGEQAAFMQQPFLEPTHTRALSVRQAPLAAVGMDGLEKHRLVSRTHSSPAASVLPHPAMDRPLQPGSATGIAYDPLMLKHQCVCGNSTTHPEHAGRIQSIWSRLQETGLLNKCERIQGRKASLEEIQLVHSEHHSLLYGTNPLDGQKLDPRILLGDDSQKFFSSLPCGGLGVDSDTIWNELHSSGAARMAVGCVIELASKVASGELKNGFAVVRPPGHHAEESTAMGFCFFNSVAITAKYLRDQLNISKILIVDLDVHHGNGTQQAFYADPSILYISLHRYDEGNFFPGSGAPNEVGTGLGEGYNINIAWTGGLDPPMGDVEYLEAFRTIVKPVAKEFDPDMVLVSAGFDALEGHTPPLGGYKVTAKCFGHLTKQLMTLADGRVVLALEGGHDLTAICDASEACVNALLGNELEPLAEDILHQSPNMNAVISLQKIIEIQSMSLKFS
Assay Notes: Caliper HDAC enzymatic endpoint assay, HDAC9
Assay type: biochemical
Assay Setup: Table 2C; read-out: HDAC9 IC50 after 0 hr preincubation
pIC50: −log10 of the molar value.
Reported Metric: pIC50

Ask: # return recorded pIC50 for entry CC(=O)Nc1ccc(C(=O)Nc2cc(-c3ccncc3)ccc2N)cc1 [BRD2492, reference compound]
Reply: < 4.48

----------
Target System: HDAC3 (Homo sapiens (Human), UniProt O15379)
Assay Notes: Caliper HDAC enzymatic endpoint assay, HDAC3
Format: biochemical
Assay Setup: read-out: HDAC3 IC50 3 h Prein; Table 2, 3 h preincubation
Reported Metric: IC50 (nM)

Example compounds with recorded IC50:
{"columns": ["Compound", "Target System", "Reported Metric", "Experimental Value"],
 "data": [
  ["CC(=O)Nc1ccc(C(=O)Nc2ccc(F)cc2N)cc1", "HDAC3 (Homo sapiens (Human), UniProt O15379)", "IC50", 68],
  ["CC(=O)Nc1ccc(C(=O)Nc2ccccc2N)c(F)c1", "HDAC3 (Homo sapiens (Human), UniProt O15379)", "IC50", 84],
  ["CC(=O)Nc1ccc(C(=O)Nc2ccc(F)cc2N)c(F)c1", "HDAC3 (Homo sapiens (Human), UniProt O15379)", "IC50", 80],
  ["Nc1cc(F)ccc1NC(=O)c1ccccc1 [Compound 7, N-(2-amino-4-fluorophenyl)benzamide]", "HDAC3 (Homo sapiens (Human), UniProt O15379)", "IC50", 418]
]}

I. CC(=O)Nc1ccc(C(=O)Nc2cc(F)ccc2N)cc1
II. CC(=O)Nc1ccc(C(=O)Nc2c(N)cccc2F)cc1
Ask: In terms of reported IC50, does I or II have the smaller number? Lab note: record the label of whichever item you select.
Reply: I
(I: 106 nM, II: 551 nM)

----------
Target System: UniProt:Q13547
Assay Notes: Binding constant from HDAC1 inactivation kinetics
Assay Setup: from Kinactivation vs concentration; read-out: Kd of HDAC1-Compound 1 complex
Reported Metric: Kd (µM)
Answer format: numeric, µM implied, no suffix.

Ask: # return recorded Kd for entry CC(=O)Nc1ccc(C(=O)Nc2ccc(F)cc2N)cc1
Reply: 5.1

----------
Target System: UniProtKB Q13547
Assay Notes: Kinetics of the inhibition of HDAC1
Assay Setup: HDAC1 residence
Reported Metric: T1/2 (min)

I. CC(=O)Nc1ccc(C(=O)Nc2ccccc2N)cc1 [CI-994, reference compound]
II. Nc1ccccc1NC(=O)c1ccc(CNC(=O)OCc2cccnc2)cc1 [MS-275, reference compound]
Ask: Rank I against II by their T1/2 values and give the higher one. Lab note: record the label of whichever item you select.
Reply: II

----------
Target System: HDAC1 (Homo sapiens (Human), UniProt Q13547)
Assay Notes: Caliper HDAC enzymatic endpoint assay, HDAC1
Type: biochemical
Assay Setup: read-out: HDAC1 IC50 3 h Prein; Table 2, 3 h preincubation
pIC50: −log10 of the molar value.
Reported Metric: pIC50

{"columns": ["Compound Structure", "pIC50"],
 "data": [
  ["Nc1cc(F)ccc1NC(=O)c1ccc(F)cc1", 5.08]
]}

a. CC(=O)Nc1ccc(C(=O)Nc2cc(F)ccc2N)cc1
b. CC(=O)Nc1ccc(C(=O)Nc2ccc(Cl)cc2N)cc1
c. CC(=O)Nc1ccc(C(=O)Nc2c(N)cccc2F)cc1
Ask: Sort (3 compounds) by pIC50: min first. Order the labels as requested and give them as your answer.
Reply: b, c, a
(b: 5.34, c: 5.66, a: 6.82)

----------
Assay Notes: Brain and plasma concentration in mice
Format: in vivo
Assay Setup: mouse, brain, other: injected (site of injection not given); read-out: T1/2 Brain (converted)
Reported Metric: half-life (h)

1. CC(=O)Nc1ccc(C(=O)Nc2ccc(F)cc2N)cc1
2. Cc1ccc(C(=O)NCCCCCC(=O)Nc2ccc(F)cc2N)cc1 [Repligen 136, reference compound]
Ask: In terms of reported half-life, does 1 or 2 have the smaller number? Lab note: record the label of whichever item you select.
Reply: 2
(2: 0.34 h, 1: 2.06 h)

----------
Target System: HDAC1 (Homo sapiens (Human), UniProt Q13547)
Assay Notes: Caliper HDAC enzymatic endpoint assay, HDAC1
Format: biochemical
Assay Setup: read-out: HDAC1 IC50 3 h Preinc; Table 2A, 3 h preincubation
Reported Metric: IC50 (nM)

Example compounds with recorded IC50:
{"columns": ["Compound", "Experimental Value"],
 "data": [
  ["Nc1ccccc1NC(=O)c1ccc(CNC(=O)/C=C/c2cccnc2)cc1 [Cmpd 3A, reference compound]", 4],
  ["Nc1cc(F)ccc1NC(=O)c1ccc(CNC(=O)OCc2cccnc2)cc1 [Compound 1A, reference compound]", 120]
]}

P. CC(=O)Nc1ccc(C(=O)Nc2ccc(F)cc2N)cc1
Q. Nc1cc(F)ccc1NC(=O)c1ccc(CNc2nccc(-c3cccnc3)n2)cc1 [Cmpd 2A, reference compound]
Ask: In terms of reported IC50, does P or Q have the smaller number? Lab note: record the label of whichever item you select.
Reply: Q
(Q: 12 nM, P: 1250 nM)

----------
Target System: HDAC2 (Homo sapiens (Human))
Sequence (Q92769 whole entry): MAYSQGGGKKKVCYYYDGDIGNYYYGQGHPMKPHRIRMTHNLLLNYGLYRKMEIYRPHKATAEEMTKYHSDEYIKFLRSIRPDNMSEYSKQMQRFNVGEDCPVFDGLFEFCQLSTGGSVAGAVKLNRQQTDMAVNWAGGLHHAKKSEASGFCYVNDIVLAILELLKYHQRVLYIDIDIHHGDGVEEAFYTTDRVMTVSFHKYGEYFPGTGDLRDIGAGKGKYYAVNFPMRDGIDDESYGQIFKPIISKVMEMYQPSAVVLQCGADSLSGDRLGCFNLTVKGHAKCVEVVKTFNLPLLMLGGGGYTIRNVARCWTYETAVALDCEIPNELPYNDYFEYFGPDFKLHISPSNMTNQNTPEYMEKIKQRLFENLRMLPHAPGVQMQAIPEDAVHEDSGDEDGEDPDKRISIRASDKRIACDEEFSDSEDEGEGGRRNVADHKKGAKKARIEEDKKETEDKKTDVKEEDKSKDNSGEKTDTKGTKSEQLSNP
Assay Notes: Caliper HDAC enzymatic endpoint assay, HDAC2
Assay type: biochemical
Assay Setup: read-out: HDAC2 IC50 3 h Prein; Table 2, 3 h preincubation
Reported Metric: IC50 (nM)

1. CC(=O)Nc1ccc(C(=O)Nc2cc(F)ccc2N)cc1
2. CC(=O)Nc1ccc(C(=O)Nc2ccccc2N)c(F)c1
Ask: In terms of reported IC50, does 1 or 2 have the smaller number? Lab note: record the label of whichever item you select.
Reply: 2
